Data credit: patent US9643967B2

Target: mTLR7 (Mus musculus, UniProt P58681)
Construct: Splenocytes isolated from male C57/BL6 mice; from tissue; host or cells: splenocytes from the spleen of male C57BL/6 mice
Sequence (P58681 27-1050): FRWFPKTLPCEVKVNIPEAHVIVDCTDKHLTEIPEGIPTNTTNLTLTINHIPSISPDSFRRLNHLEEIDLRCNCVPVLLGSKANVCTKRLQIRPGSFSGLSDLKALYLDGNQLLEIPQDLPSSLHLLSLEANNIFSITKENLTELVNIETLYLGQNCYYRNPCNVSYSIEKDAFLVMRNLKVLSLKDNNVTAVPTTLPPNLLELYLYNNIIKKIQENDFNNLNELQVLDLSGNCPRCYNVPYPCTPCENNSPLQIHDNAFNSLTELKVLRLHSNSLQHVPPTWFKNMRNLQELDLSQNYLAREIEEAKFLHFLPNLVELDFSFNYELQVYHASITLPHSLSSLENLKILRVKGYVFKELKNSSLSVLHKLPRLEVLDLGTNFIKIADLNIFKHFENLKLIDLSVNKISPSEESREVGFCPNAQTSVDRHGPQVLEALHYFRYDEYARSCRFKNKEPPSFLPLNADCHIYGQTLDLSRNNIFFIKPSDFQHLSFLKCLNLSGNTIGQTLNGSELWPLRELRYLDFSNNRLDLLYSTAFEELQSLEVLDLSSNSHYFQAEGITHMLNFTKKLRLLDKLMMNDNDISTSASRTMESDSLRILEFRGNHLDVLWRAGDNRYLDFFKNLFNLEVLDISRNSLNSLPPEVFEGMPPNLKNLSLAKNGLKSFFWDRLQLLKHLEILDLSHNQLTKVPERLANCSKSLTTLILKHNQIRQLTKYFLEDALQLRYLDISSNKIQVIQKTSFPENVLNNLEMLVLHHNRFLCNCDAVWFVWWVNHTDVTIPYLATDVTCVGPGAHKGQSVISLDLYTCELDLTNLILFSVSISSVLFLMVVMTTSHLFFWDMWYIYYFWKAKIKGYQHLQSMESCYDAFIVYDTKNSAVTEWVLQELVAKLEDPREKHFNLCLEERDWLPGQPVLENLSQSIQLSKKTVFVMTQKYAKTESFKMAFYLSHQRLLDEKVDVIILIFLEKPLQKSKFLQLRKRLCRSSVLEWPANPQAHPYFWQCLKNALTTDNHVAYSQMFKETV
Test: mTLR7 antagonism (IL-6 and TNF-α release assay) in mouse splenocytes, R0006/DOTAP stimulated
Format: cell-based
Settings: 1 μM; TNF-α release, mouse splenocytes; read-out: mTLR7 inhibitory activity (% at 1 μM), TNF-α
For each entry below, report its inhibition at 1 µM value.
The answer is to be given in %; state only the numeric part.

Please give the measured inhibition at 1 µM for this molecule: `CN1CCN(c2ccc(-c3nccc4[nH]c(CCN5CCOCC5)cc34)cc2)CC1`
100

Name the recorded inhibition at 1 µM for `CC(C)N1CCN(c2ccc(-c3nccc4[nH]c(CN5CCC6(CC5)CC(O)C6)cc34)cc2)CC1` .
91

Looking for the measured inhibition at 1 µM of `Cc1cc2[nH]c(Cn3cccn3)cc2c(-c2ccc(N3CCN(C(C)C)CC3)cc2)n1` , can you help?
100

Name the reported inhibition at 1 µM value associated with the molecule `CN1CCN(c2ccc(-c3nccc4[nH]c(CCCN5CCOCC5)cc34)cc2)CC1`
100

State the recorded inhibition at 1 µM for this entry: `Cc1cc2c(cc(CCCN3CCOCC3)n2C)c(-c2ccc(N3CCN(C(C)C)CC3)cc2)n1`
100

I have this molecule here, `CC(C)N1CCN(c2ccc(-c3nccc4[nH]c(CN5CCC(O)CC5)cc34)cc2)CC1` , and I need its recorded inhibition at 1 µM.
45

Item `Cc1cc2c(cc(CCN3CCOCC3)n2C)c(-c2ccc(N3CCN(C(C)C)CC3)cc2C(F)(F)F)n1` has what recorded inhibition at 1 µM?
90

inhibition at 1 µM for `CN1CCN(c2ccc(-c3nccc4[nH]c(CN5CCOCC5)cc34)cc2)CC1` ?
100

Which inhibition at 1 µM is reported for this molecule? `Cc1cc2c(cc(CCN3CCOCC3)n2C)c(-c2ccc(N3CCN(C(C)C)CC3)cc2C)n1`
83

# input molecule: `Cc1cc2[nH]c(CCCN3CCCCC3)cc2c(-c2ccc(N3CCN(C(C)C)CC3)cc2)n1` ; wanted: its inhibition at 1 µM
97

Value lookup for inhibition at 1 µM; key = `Cc1cc2[nH]c(CCN3CCCCC3)cc2c(-c2ccc(N3CCN(C(C)C)CC3)cc2)n1`
100

Query (molecule): `Cc1cc2c(cc(CCN3CCOCC3)n2C)c(-c2ccc(C3CCN(C(C)C)CC3)cc2)n1` ; field requested: inhibition at 1 µM
100

Returns the measured inhibition at 1 µM for the input molecule. Input: `CC(C)N1CCN(c2ccc(-c3nc(C4CC4)cc4[nH]c(CN5CCOCC5)cc34)cc2)CC1`
83

Record request: inhibition at 1 µM value, item `Cc1cc2[nH]c(CCN3CCOCC3)cc2c(-c2ccc(N3CCN(C)CC3)cc2)n1`
100

For `Cc1cc2c(cc(CCN3CCOCC3)n2C)c(-c2ccc(N3CCN(C(C)C)CC3)c(F)c2)n1` , what is its reported inhibition at 1 µM?
100

Can you share its inhibition at 1 µM? I mean this molecule: `Cc1cc2[nH]c(CCCN3CCOCC3)cc2c(-c2ccc(N3CCN(C(C)C)CC3)cc2)n1`
100

Endpoint output: inhibition at 1 µM of `Cc1nc(-c2ccc(N3CCN(C(C)C)CC3)cc2)c2cc(CCN3CCCC3)[nH]c2c1C` . Value?
100

Sample `CC(C)N1CCN(c2ccc(-c3nccc4[nH]c(CCCN5CCOCC5)cc34)cc2)CC1` — what was its inhibition at 1 µM?
100

Returns the measured inhibition at 1 µM for the input molecule. Input: `Cc1cc2c(cc(CCN3CCOCC3)n2C)c(-c2cccc(N3CCN(C(C)C)CC3)c2)n1`
100

GET /values?readout=inhibition at 1 µM&item= `Cc1cc2[nH]c(CN3CCOCC3)cc2c(-c2ccc(C3CCN(C(C)C)CC3)cc2)n1`
96

Field request: inhibition at 1 µM | item: `CN1CCN(Cc2ccc(-c3nccc4[nH]c(CN5CCOCC5)cc34)cc2)CC1`
29

What inhibition at 1 µM value was documented for this molecule, `Cc1cc2c(cc(CCN3CCOCC3)n2C)c(-c2ccc(N3CCN(C(C)C)CC3)c(C)c2)n1` ?
100

Query: inhibition at 1 µM; subject: `CC(C)N1CCN(c2ccc(-c3nccc4[nH]c(CN5CCC(F)CC5)cc34)cc2)CC1`
100

Value lookup for inhibition at 1 µM; key = `c1cc2[nH]c(CN3CCOCC3)cc2c(-c2ccc(N3CCN(C4COC4)CC3)cc2)n1`
24

Given the entry `CN1CCN(c2cccc(-c3nccc4[nH]c(CN5CCOCC5)cc34)c2)CC1` , report its measured inhibition at 1 µM.
74

Entry `CN1CCC(n2cc(-c3nccc4[nH]c(CN5CCOCC5)cc34)cn2)CC1` : reported inhibition at 1 µM = ?
0

Entry under review: `Cc1cc2[nH]c(CN3CCC4(CC3)CC(C)C4)cc2c(-c2ccc(N3CCN(C(C)C)CC3)cc2)n1` . Reported inhibition at 1 µM?
100

Reported inhibition at 1 µM, molecule `CC(C)N1CCC(n2cc(-c3nccc4[nH]c(CN5CCOCC5)cc34)cn2)CC1` : ____
0

Recorded inhibition at 1 µM of `CN1CCN(c2ccc(-c3nc(C4CC4)cc4[nH]c(CN5CCOCC5)cc34)cc2)CC1` , please.
100

Need inhibition at 1 µM of `CC(C)N1CCN(Cc2ccc(-c3nccc4[nH]c(CN5CCOCC5)cc34)cc2)CC1` , thanks.
33

Would you kindly share the measured inhibition at 1 µM for `Cc1nc(-c2ccc(N3CCN(C(C)C)CC3)cc2)c2cc(CN3CCCCC3)[nH]c2c1C` ?
100

Data request, read-out inhibition at 1 µM, for `CC(C)N1CCN(c2cccc(-c3nccc4[nH]c(CN5CCOCC5)cc34)c2)CC1`
79
